Answer each item with its documented TGI.
- Tested on: M14 melanoma
- Assay Overview: NCI tumour cell line growth inhibition, 48 h

Record excerpt, results attached:
The compound listed as CC1CN=C(Nc2ccccc2)S1 (stereo not given) has a reported TGI of > 100 µM

The reported TGI of the compound `CCCCCCc1ccc(C(=O)NO)cc1` was > 100 µM

response.value for `CNC(=S)NC(=O)c1c(Cl)n(C(=O)OC(C)(C)C)c2ccccc12` (field: TGI) = > 100 µM

TGI measured on COc1ccc(/C(=N\NC(=O)C(=O)NN)C(c2ccc(OC)cc2)C2(O)C(=O)Nc3ccccc32)cc1 (stereo not given) = > 100 µM

Item: `CCCC[C@H]1[C@@H](OCOc2ccccc2)COC(=O)N1[C@H](C)c1ccccc1` | TGI: 31.2 µM

Look up TGI for the entries below, preserving their order.
1. O=C1NC(=O)C(c2ccccc2Cl)=C1Nc1cc(Cl)c(O)c(Cl)c1
2. C=C(C)[C@@H]1CC[C@]2(C(=O)O)CC[C@]3(C)[C@H](CC[C@@H]4[C@@]5(C)CCC(NC(=O)c6cccc(OC(C)=O)c6OC(C)=O)C(C)(C)[C@@H]5CC[C@]43C)[C@@H]12 (stereo not given in full)
3. C[C@]12CC[C@H](OC3OC(CO)C(O)C(O)C3O)C[C@H]1CC[C@@H]1[C@@H]2CC[C@]2(C)[C@@H](C3=CCOC3=O)CC[C@]12O (stereo not given in full)
4. C[C@]12CC[C@@H]3c4cc(-c5ccc(F)cc5)c(O)cc4CC[C@H]3[C@@H]1CC[C@@H]2O
5. CCN1C(=O)C(=C/C=C/C=C2/N(C)c3ccccc3C2(C)C)C(=O)N(CC)C1=S

> 25 µM
2.25 µM
> 100 µM
34.5 µM
> 100 µM

* * *

- Tested on: U251 CNS
Tick one outcome: 1.0 = active, 0.0 = inactive

Recorded test outcome, item `O=C1NC(=O)C(c2ccccc2Cl)=C1Nc1cc(Cl)c(O)c(Cl)c1` 0.0

Next:
Record lookup: outcome of this test for `C=C1C(=O)O[C@H]2[C@H]1CC/C(COC(=O)C(=O)c1cn(C)c3ccc(Cl)cc13)=C\CC[C@@]1(C)O[C@@H]21` ? 0.0

Check the results log: what was the call for `COc1cc2ncn(-c3cc(O[C@@H](C)c4ccccc4Cl)c(C(N)=O)s3)c2cc1OC` ? 0.0

// param item: `CC(C)C[C@H](NC(=O)Cn1ccc(NCc2ccccc2)cc1=O)B(O)O` ; yields the recorded call 0.0

# outcome recorded in this test, key = CC(=Nc1ccccc1)C1=C(O)C(Cc2ccc(O)cc2)NC1=O (configuration not stated) 1.0

Given `COc1ccc(NC([Se])=NC23CC4CC(CC(C4)C2)C3)cc1` , state the outcome it received in this test. 0.0

I'd appreciate the recorded outcome for `O=c1cc(N2CCN(CCCCCOc3cc(O)c4c(=O)cc(-c5ccccc5)oc4c3)CC2)c2ccccc2o1` from this test. 0.0

Given `COC(=O)c1cc2c3ccccc3n3c(=O)c4cc5ccccc5nc4c(n1)c23` , state the outcome it received in this test. 0.0

Each molecule tested received a call. Report the one for `C/C(=N\Nc1cc(C)c2ccccc2n1)c1ccccn1` . 1.0

Assay result, entry C=C(NC(=O)C(=C)NC(=O)c1csc(C2=NC3c4csc(n4)C4NC(=O)c5csc(n5)C(C(C)(O)C(C)O)NC(=O)C5CSC(=N5)C(=CC)NC(=O)C(C(C)O)NC(=O)c5csc(n5)C3(CC2)NC(=O)C(C)NC(=O)C(=C)NC(=O)C(C)NC(=O)C(C(C)CC)NC2C=Cc3c(C(C)O)cc(nc3C2O)C(=O)OC4C)n1)C(N)=O (configuration not stated) — outcome? 0.0

Which outcome was entered for the molecule `COc1cc2c(cc1OC)-c1ccc3cc4c(cc3c1N(CCCn1ccnc1)C2)OCO4` in this test? 0.0

Lab log entry: `COc1ccc(-c2cc(-c3ccc(Cl)cc3)nc(SCCCC(=O)NO)n2)cc1` — outcome as called in the assay? 0.0
